Origin of values: the supplement of paper PMC11451515

Please go through the items and note down their cell viability.
System: NOMO1
Test: cell viability relative to DMSO control; higher = less cytotoxic
Conditions: RPMI 5 mM glucose + 10% FBS; 48 h; 0.0632 µM

Use these answered entries as a reference point.
compound: O=C1Nc2ccccc2/C1=C1\Nc2ccccc2C1=O
cell viability: 103%
--
compound: O=C1NC(=O)[C@@H](c2cn3c4c(cccc24)CCC3)[C@@H]1c1c[nH]c2ccccc12
cell viability: 108%
--
compound: O=C(NC1CCNCC1)c1n[nH]cc1NC(=O)c1c(Cl)cccc1Cl
cell viability: 112%

# map each compound to its cell viability
1. CN(N=O)C(=O)N[C@H]1C(O)OC(CO)[C@@H](O)[C@@H]1O (stereo partly specified)
2. O=C1c2c(O)cccc2[C@H]([C@@H]2O[C@H](CO)[C@@H](O)[C@H](O)[C@H]2O)c2cc(CO)cc(O)c21
3. Cc1ccc(C(C)(O)c2nc3ccccc3s2)c(C)c1 (stereo unspecified)
4. C[C@H]([C@H](O)CCC(C)(C)O)[C@H]1CC[C@@]2(O)C/3=C/C(=O)[C@@H]4C[C@@H](O)[C@@H](O)C[C@]4(C)[C@H]3CC[C@]12C
5. COC(=O)N1CCN(Cc2cccc(NC(=O)Nc3ccc(C)nc3)c2F)CC1
6. Cc1c[nH]c(/C=C2\C(=O)Nc3ccccc32)c1CCC(=O)O

Result:
1. 81.3%
2. 94.5%
3. 105%
4. 106%
5. 95.7%
6. 122%

# map each compound to its cell viability
1. OCc1ccccc1O[C@@H]1O[C@H](CO)[C@@H](O)[C@H](O)[C@H]1O
2. Nc1nc(-c2nn(Cc3ccccc3F)c3ncccc23)nc(N)c1N1CCOCC1
3. Clc1ccc(C2(c3ccc(-c4cn[nH]c4)cc3)CCNCC2)cc1
4. CC(C)(C)OC(=O)CN(Cc1ccc(Cl)cc1)Cc1ccc([N+](=O)[O-])s1
5. O=C/1\C=C(/OC(=C1)/C2=C3SC4=C(SC3=CC=C2)C=CC=C4)N5CCOCC5
6. CN(C)Cc1ccc(-c2nc3cccc4c3n2CCNC4=O)cc1
7. CC(C)C[C@H](CN)CC(=O)O

Result:
1. 126%
2. 110%
3. 90.8%
4. 93.5%
5. 92%
6. 98.3%
7. 87.9%

---

Please go through the items and note down their cell viability.
Tested on: NOMO1
Assay: cell viability relative to DMSO control; higher = less cytotoxic
Settings: RPMI 5 mM glucose + 10% dialyzed FBS; 48 h; 0.0211 µM
One number for each entry, in %.

structure: CN1CCCN(C(=O)c2cccc(-c3ccc(/C=C4/C(=O)Nc5ccc(Cl)cc54)o3)c2)CC1
quantitative.result: 107
--
structure: Clc1cccc(-c2nnnn2Cc2cccnc2)c1Cl
quantitative.result: 93.6

Let us examine a further case.
Problem: What measured cell viability goes with "ClC1=CC=C(CCCOC/2=N/NC(=O)C(=C2NCC3=CN=CC=C3)/Br)C=C1" ?
Result: 112

---

System: SEM cells
Test: cell viability relative to DMSO control; higher = less cytotoxic
Details: RPMI 5 mM glucose + 10% dialyzed FBS; 48 h; 5.12 µM
value.kind: cell viability (%)
Numbers only, in %.

compound: CN1C(=O)\C(=C/C(=C1/NC2=C(F)C=C(I)C=C2)C(=O)NOCCO)C
tested.on: SEM cells
cell viability (%): 63.2
//
compound: CNC(=O)c1cccc(-c2ccc3c(N4CCOC[C@@H]4C)nc(N4CCOC[C@@H]4C)nc3n2)c1
tested.on: SEM cells
cell viability (%): 43
//
compound: C#CCN(C)[C@H](C)Cc1ccccc1
tested.on: SEM cells
cell viability (%): 89.1

# map each compound to its cell viability
1. COc1ccc(CCN2CCN(CCCc3ccccc3)CC2)cc1OC
2. O=C1NC(=O)[C@@H](c2cn3c4c(cccc24)CCC3)[C@@H]1c1c[nH]c2ccccc12
3. COC(=O)N1CCN(Cc2cccc(NC(=O)Nc3ccc(C)nc3)c2F)CC1

Result:
1. 141
2. 22.7
3. 90.7

# map each compound to its cell viability
1. NC1CCC(N[C@@H]2C[C@H]2c2ccccc2)CC1 (stereo not given in full)
2. O=C1\C=C(/OC2=C1C=CC=C2C3=CC=CC=C3)N4CCOCC4
3. Cn1c2ccccc2c2c3c(c4c5ccccc5n(CCC#N)c4c21)CNC3=O
4. Cc1ccc(NC(=O)c2ccc(CN3CCN(C)CC3)cc2)cc1Nc1nccc(-c2cccnc2)n1

Result:
92.4
101
19
80.1

---

System: SEM cells
Test: cell viability relative to DMSO control; higher = less cytotoxic
Settings: RPMI 5 mM glucose + 10% dialyzed FBS; 48 h; 0.569 µM
value.kind: cell viability (%)
Give bare numbers, in %.

Use these answered entries as a reference point.
compound: CN1CCCN(C(=O)c2cccc(-c3ccc(/C=C4/C(=O)Nc5ccc(Cl)cc54)o3)c2)CC1
quantitative.result: 75.7
--
compound: Cc1ccc(NC(=O)C2(c3ccc4c(c3)OC(F)(F)O4)CC2)nc1-c1cccc(C(=O)O)c1
quantitative.result: 13.2
--
compound: CC(C)(C)/[N+]([O-])=C/c1ccc([S+](=O)([O-])[O][Na])cc1[S+](=O)([O-])[O][Na]
quantitative.result: 117
--
compound: NC(=O)N1c2ccccc2CC(=O)c2ccccc21
quantitative.result: 105
--
compound: C#CCN(C)[C@H](C)Cc1ccccc1
quantitative.result: 81.1

# map each compound to its cell viability
1. C[C@@H](c1ncncc1F)[C@](O)(Cn1cncn1)c1ccc(F)cc1F
2. COc1ccc(Cc2nccc3cc(OC)c(OC)cc23)cc1OC
3. O=C1CSC(=O)N1C(CCc1ccncc1)COc1ccc(-c2cccc([N+](=O)[O-])c2)cc1 (centres undefined)
4. Cc1ccc(C(C)(O)c2nc3ccccc3s2)c(C)c1 (centres undefined)

Result:
140
105
128
8

---

Test system: P12-Ichikawa
Experiment: cell viability relative to DMSO control; higher = less cytotoxic
Settings: RPMI 5 mM glucose + 10% FBS; 48 h; 0.0632 µM
Please go through the items and note down their cell viability.
One number for each entry, in %.

# map each compound to its cell viability
1. O=C(Nc1ccc(OC(F)(F)F)cc1)c1sccc1NCc1ccnc2ccccc12
2. C#CCN(C)[C@H](C)Cc1ccccc1
3. CNC(=O)[C@H](Cc1ccccc1)NC(=O)[C@H](CC(C)C)[C@H](CSc1cccs1)C(=O)NO
4. Cc1cc(O)c2c3c4c(cc(O)c13)C(C)(C)C(=O)c1c(O)cc(O)c(c1-4)C2=O
5. CCNC(=O)C[C@@H]1\N=C(C2=CC=C(Cl)C=C2)/C3=C(C=CC(=C3)OC)[N]4C(=NN=C14)C
6. CSC1=CC(=CC=C1)NC2=NC3=C(C=N2)/C=C(C(=O)N3C)/C4=C(Cl)C=CC=C4Cl
7. O=C(NC1CCOCC1)c1ccc(-c2cc(-c3c[nH]nc3-c3ccccn3)ccn2)cc1
8. CCOC(=O)C/1=C(C)/NC(=S)NC1C2=CC=CC(=C2)O (stereo not given)

Result:
1. 118
2. 92.2
3. 78
4. 114
5. 105
6. 115
7. 109
8. 112

---

System: SEM cells
Assay: cell viability relative to DMSO control; higher = less cytotoxic
Details: HPLM + 10% dialyzed FBS; 48 h; 0.0632 µM
value.kind: cell viability (%)
Answers are plain numbers, in %.

structure: O=C1Nc2ccccc2/C1=C1\Nc2ccccc2C1=O
tested.on: SEM cells
value.units: %
cell viability: 80.4
--
structure: COC[C@H](NC(=O)c1cnc(C)s1)C(=O)N[C@@H](COC)C(=O)N[C@@H](Cc1ccccc1)C(=O)[C@@]1(C)CO1
tested.on: SEM cells
value.units: %
cell viability: 92.3
--
structure: NC/1=N/C(=O)N/C=C1F
tested.on: SEM cells
value.units: %
cell viability: 118

Let us examine a further case.
Problem: What measured cell viability goes with "CCOC(=O)Nc1ccc(NCc2ccc(F)cc2)cc1N" ?
Result: 103

---

System: NOMO1
Assay: cell viability relative to DMSO control; higher = less cytotoxic
Settings: RPMI 5 mM glucose + 10% dialyzed FBS; 48 h; 0.0211 µM
Please go through the items and note down their cell viability.
Answers are plain numbers, in %.

Use these answered entries as a reference point.
compound: COc1cc(N2CCC(O)CC2)ccc1Nc1cc(Nc2ccccc2[S+](=O)([O-])C(C)C)c2cc[nH]c2n1
value.units: %
cell viability: 100
--
compound: CC/1=C/N([C@@H]2C[C@@H](O)[C@H](CO)O2)C(=O)NC1=O
value.units: %
cell viability: 86.4
--
compound: Cc1ccc(NC(=O)c2ccc(CN3CCN(C)CC3)cc2)cc1Nc1nccc(-c2cccnc2)n1
value.units: %
cell viability: 101

# map each compound to its cell viability
1. Nc1ccccc1NC(=O)c1ccc(CNc2nccc(-c3cccnc3)n2)cc1
2. O=C1NC(=O)[C@@H](c2cn3c4c(cccc24)CCC3)[C@@H]1c1c[nH]c2ccccc12
3. Cc1ccc(NC(=O)C2(c3ccc4c(c3)OC(F)(F)O4)CC2)nc1-c1cccc(C(=O)O)c1
4. COc1cc2nccc(Oc3ccc(NC(=O)Nc4cc(C)on4)c(Cl)c3)c2cc1OC
5. O=[N+]([O-])c1cn2c(n1)OC[C@@H](OCc1ccc(OC(F)(F)F)cc1)C2
6. O=C(Nc1ccc(OC(F)(F)F)cc1)c1sccc1NCc1ccnc2ccccc12
7. C1Cc2[nH]nc(-c3nn[nH]n3)c2C1
8. CCCCCCCCCCCC(CC1OC(=O)C1CCCCCC)OC(=O)C(CC(C)C)NC=O (configuration not stated)

Result:
1. 119
2. 98.7
3. 110
4. 114
5. 126
6. 117
7. 139
8. 91.7

# map each compound to its cell viability
1. CCC1=C[C@@H]2CN(C1)Cc1c([nH]c3ccccc13)[C@@](C(=O)OC)(c1cc3c(cc1OC)N(C)[C@H]1[C@@](O)(C(=O)OC)[C@H](OC(C)=O)[C@]4(CC)C=CCN5CC[C@]31[C@@H]54)C2
2. O=C(NC1CCNCC1)c1n[nH]cc1NC(=O)c1c(Cl)cccc1Cl
3. CN(C)CCOC(c1ccccc1)c1ccccc1
4. COc1cc2nccc(Oc3ccc(NC(=O)C4(C(=O)Nc5ccc(F)cc5)CC4)cc3)c2cc1OC

Result:
[107, 113, 113, 107]

# map each compound to its cell viability
1. O=C1Nc2ccccc2/C1=C1\Nc2ccccc2C1=O
2. Nc1nc(-c2nn(Cc3ccccc3F)c3ncccc23)nc(N)c1N1CCOCC1

Result:
100
110
